The measured values listed here are drawn from patent WO2009150539A2.

Target: T1, AahII toxin of Androctonus australis hector (Androctonus australis hector, UniProt P01484 20-83)
T1 construct: mature; also called Aahll
T1 sequence: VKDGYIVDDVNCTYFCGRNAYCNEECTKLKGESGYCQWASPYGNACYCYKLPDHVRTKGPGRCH
Assay: SPR (BIAcore), AahII immobilised on CM5 chip, Nb in mobile phase
Catalogue of koff readings, one per entry.
PROPERTY LABEL: koff (s⁻¹)

INSERT INTO measurements (binder, quantity_unit, endpoint_result) VALUES
  ('NbAahII17 (VHH, also called cluster D) VHH: DVQLVESGGGSVQAGGSLRLSCAASGVTLNNYCVGWFRQAPGKEREGVAAFKSGGSFTYYADSVKGRFTISKDNAKNTMYLQMNSLNSDDTAMYYCAVTRNSCLGLAKFRPSSYNYWGQGTQVTVSS', 's⁻¹', 0.00376),
  ('NbAahII18 (VHH, also called NbAahlllδ; NbAahll l δ) VHH: QVQLQESGGGSVQAGGSLRLSCAASGDSYSNYYMAWFRQAPGKEREGVAHINRSGRITLYADSVKGRFTMSRDNAKNTVYLQMNSLRPEDTAIYYCAAGVRTHMPPLASYGFDYWGQGTQVTVSS', 's⁻¹', 0.0016),
  ('NbAahII08 (VHH, also called cluster F) VHH: DVQLVESGGGSVQAGGSLRLSCAASGDSYSNYYMAWFRQAPGKEREGVAHINRSGRITLYADSVKGRFTMSRDNAKNTVYLQMNSLKPEDTAIYYCAAGVRTHMPPLASYGFDYWGQGTQVTVSS', 's⁻¹', 0.00138),
  ('NbAahII10 (VHH, also called NbAahIIlO; NbAahII lO) VHH: QVQLVESGGGSVQAGGSLKLSCAASGYFYSSNYCLGWFRQAPGKEREGVAQINIAPGRIYYADSVKGRFTISRDNAKNTVYLQMDSLKPEDTAIYYCASTAGNMYYGLRGPADFDYWGQGTQVTVSS', 's⁻¹', 0.000569);
